# System: S6K1
# Measurement Setup: concentration: 1 μM, replicates: in singlicate; n = 1;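 further: KINOMEscan kinase panel screen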
Endpoint Label: %Inh (%)
One number for each entry, in %.

// solved cases for %Inh follow
molecule=Cc1c(Cn2c3ccccc3n3c(=O)cc(N4CCOCC4)nc23)cccc1C(F)(F)F tested_system=S6K1 endpoint_label=%Inh units_of_measure=% observed_result=0
molecule=O=C(Nc1n[nH]c2nc(-c3cccs3)c(Br)cc12)C1CCCC1 tested_system=S6K1 endpoint_label=%Inh units_of_measure=% observed_result=2
molecule=O=c1cc(N2CCOCC2)nc2n(Cc3ccccc3F)ccn12 tested_system=S6K1 endpoint_label=%Inh units_of_measure=% observed_result=0

Would you be so kind as to report %Inh for each listed record?
1. COc1cccc(NC(=O)Nc2ccc(C)c(-c3ccc(C(=O)Nc4ccncc4)cc3)c2)c1
2. CCn1c(-c2ccccc2)nc2cnccc21

1: 18; 2: 22

For every item below, please supply its %Inh.
1. Cn1cncc1-c1cc2c(Nc3ccc(OCc4ccccc4)cc3)ncnc2cn1
2. CC(=O)c1c(C)c2cnc(Nc3ccc(N4CCNCC4)cn3)nc2n(C2CCCC2)c1=O
3. Nc1cccc(-c2ccc3c(N)n[nH]c3c2)n1
4. Cn1cnc2c(N)ncnc21
5. Cn1cncc1C(=O)NC1CCN(c2ccnc(Nc3ccc(F)cc3)n2)C1 (stereo not shown)
6. O=C(Nc1n[nH]c2nc(-c3ccco3)c(Br)cc12)C1CCN(Cc2ccccc2)C1.O=C(O)[C@H](O)[C@@H](O)C(=O)O (stereo not shown)
7. CC(C)c1cc(-c2ccc3c(N)n[nH]c3c2)nc(N)n1

1. 3
2. 0
3. 7
4. 0
5. 7
6. 23
7. 0

List reported %Inh for each of these molecules:
1. CC(=O)c1c(C)c2cnc(Nc3ccn(C)n3)nc2n(C2CCCC2)c1=O
2. Cc1ccc(NC(=O)Nc2ccccc2)cc1-c1ccc(C(=O)Nc2ccncc2)cc1
3. O=C1NC(=O)C(c2ccc(Cl)cc2)=C1Nc1cccc(Cl)c1
4. CNc1cc(-c2ccc3c(N)n[nH]c3c2)nc(N)n1
5. COC(=O)c1cccc(NC(=O)NC2CCN(c3ccnc(Nc4ccc(F)cc4)n3)C2)c1 (stereo not shown)
6. Cc1ccccc1Cn1ccn2c(=O)cc(N3CCOCC3)nc12
7. COc1ccc2cc(-c3nc(-c4ccccc4C(C)C)[nH]c3-c3ccncc3)ccc2c1

0
0
36
0
0
0
8

---

# Tested on: PKMYT1
# Measurement Setup: concentration: 1 μM, replicates: in singlicate; n = 1
Endpoint Label: %Inh (%)
Numbers only, in %.

compound=Cn1cncc1-c1cc2c(Nc3ccc(OCc4ccccc4)cc3)ncnc2cn1 tested_system=PKMYT1 endpoint_label=%Inh observed_result=0

// each compound listed below needs its %Inh
1. O=C(Nc1n[nH]c2nc(-c3cccs3)c(Br)cc12)C1CCCC1
2. CS(=O)(=O)CCNCc1nc(-c2ccc3ncnc(Nc4ccc(OCc5ccccc5)c(Cl)c4)c3c2)cs1.Cl
3. COc1ccc(Nc2nccc(N3CCC(NC(=O)c4cc5ccccc5s4)C3)n2)cc1 (stereo not drawn)
4. COc1ccc(CSc2nnc(-c3ccc4c(c3)CCO4)o2)cc1
5. CC(C)c1cc(-c2ccc3c(N)n[nH]c3c2)nc(N)n1

[0, 0, 3, 19, 14]

---

# Tested on: PCTK1
# Construct: gene CDK16
# Measurement Setup: concentration: 1 μM, replicates: in singlicate; n = 1
Note to self: %Inh under 2% means Yes, ties and anything higher get No.

Use the examples below as a reference point.
molecule=Cc1c(Cn2c(C)c(C)n3c(=O)cc(N4CCOCC4)nc23)cccc1C(F)(F)F tested_system=PCTK1 class_assignment=Yes
molecule=CC(C)c1cc(-c2ccc3c(N)n[nH]c3c2)nc(N)n1 tested_system=PCTK1 class_assignment=Yes
molecule=Cc1cccc2c(-c3ccncn3)c(-c3ccc(F)cc3)nn12 tested_system=PCTK1 class_assignment=Yes
molecule="O=C(Nc1n[nH]c2nc(-c3ccco3)c(Br)cc12)C1CCN(Cc2ccccc2)C1.O=C(O)[C@H](O)[C@@H](O)C(=O)O (stereo not shown)" tested_system=PCTK1 class_assignment=No
molecule=Fc1ccc(-c2nc3n(c2-c2ccncc2)CCS3)cc1 tested_system=PCTK1 class_assignment=No

Hi there! Is %Inh for Cn1cncc1C(=O)NC1CCN(c2ccnc(Nc3ccc(F)cc3)n2)C1 (stereo not shown) below 2%, do you know? No

Quick check: does `O=c1cc(N2CCOCC2)nc2n(Cc3cccc(Cl)c3Cl)c3ccccc3n12` have %Inh under 2%? No

Decide: %Inh of `Fc1ccc(-c2nc[nH]c2-c2ccncc2)cc1` strictly below 2%? Yes

# strict comparison: is reported %Inh < 2%? input = COc1ccc(Nc2nccc(N3CCC(NC(=O)C(C)c4ccc(Cl)cc4)C3)n2)cc1 (stereo not shown) Yes

Is 2% strictly greater than the molecule's reported %Inh? molecule: `COc1ccc2cc(-c3nc(-c4ccccc4C(C)C)[nH]c3-c3ccncc3)ccc2c1` No
